For each record, write down the corresponding protease stability score.
# protocol.text: protease stability score; higher = more stable; yeast display proteolysis, trypsin and chymotrypsin;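 further: relative to predicted unfolded state with 0 unfolded-like and 1 meaning tenfold more protease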
Give only the figure.

[in] Dear colleague, I am looking for the recorded protease stability score of the following sequence: `DEEEQEFREFMKHVLEMIRTGDEDQWRKLMDPDARLIVDGKDIHGREEVVRLWSEITRHARFRDRKIHSMEIQGDKVRVDGRVLGEFNGVDRQTESHIIFHKINGRWKIHQEFIV`
[out] 0.882

[in] Try this sequence too: `SEEEKDNKLAIHLTMEILRTGDEEHSKKMIDPDARHQQGDKELHGMEEVSTEIMEIWRRYKGVKFEVKRVHMQGEFIKIKVDLHVNGQTLDVIIVLYKVDGRWTIHSIHVH`
[out] 1.48

[in] Next sequence: `SEDEEEVRKFLKRLLRATETGNEQVLKELFDPNVRIVIGDKHLIGWDFMHTILRRVDVWVVRHIEIKRIDFQGDKLDIDGHVHYEEQIDGQRVSHKRDVKLIMLKVNGVWMFEYIIIH`
[out] 2.45

Just for reference, the NTF2 design screens of Basanta et al. (2020) is where these values come from.
